test system: BT-549; test: NCI tumour cell line growth inhibition, 48 h
Active and inactive are the calls of the source. No stated cut-off is given here; in the data, active = GI50 up to about 1.1 µM and inactive = higher.
Labels: active, inactive

| compound | targetOfAssay | categoryLabel |
| --- | --- | --- |
| O=C1NC2=NOC(=O)NC2=NO1 | BT-549 | inactive |
| O=C1c2cccc(NCCNCCO)c2C(=O)c2cccc(NCCNCCO)c21 | BT-549 | inactive |
| Cc1nc(C)c(N2CCN(C(=O)O)CC2)c(O)n1 | BT-549 | inactive |
| CN(Cc1cnc2c(n1)C(N)=NN(N)N2)c1ccc(C(=O)NC(CCP(=O)(O)O)C(=O)O)cc1 (stereo not given) | BT-549 | inactive |
| CCOC(=O)C1C(=O)CC(C)(O)C(C(=O)OCC)C1c1ccc(O)c(OC)c1 (stereo not given) | BT-549 | inactive |
| CN(C)c1ccc2oc(=O)c3ccccc3c2c1 | BT-549 | inactive |
| CCN(CC)CCC(=O)c1ccc(C)cc1 | BT-549 | inactive |
| O=C1/C(=C\c2ccccc2)CN(C(=O)CCN2CCCCC2)C/C1=C/c1ccccc1 | BT-549 | active |
| CCOC(=O)CC(=O)Nc1c(C(=O)OCC)sc2nc(SC)nc(Nc3ccc(OC)c(OC)c3)c12 | BT-549 | inactive |
| C1=C\SS/C=C\SS/1 | BT-549 | inactive |
| CO[C@H]1C[C@H](O[C@H]2CC[C@]3(C=O)[C@H]4CC[C@]5(C)[C@@H](C6=CC(=O)OC6)CC[C@]5(O)[C@@H]4CC[C@]3(O)C2)O[C@H](C)[C@H]1O [CYMARIN] | BT-549 | active |
| COc1ccc2c(c1)CC[C@@H]1C2CC[C@]2(C)OC(=O)CCC12 (stereo not given in full) | BT-549 | inactive |
| Cc1ccc(NC(=S)N/N=C(/c2ccccc2)c2ccccn2)cc1 | BT-549 | inactive |
| CCOC(CN(C)C(=O)OCC(Cl)(Cl)Cl)OCC | BT-549 | inactive |
| C/C(=N\Nc1ccc([N+](=O)[O-])cc1[N+](=O)[O-])c1sc(-n2nc(-c3ccccc3)cc2-c2ccccc2)nc1C | BT-549 | inactive |

---

system: HCT-116; experiment: NCI tumour cell line growth inhibition, 48 h
Calls of active or inactive are those of the source. No stated cut-off is given here; in the data, active = GI50 up to about 1.1 µM and inactive = higher.
Items are presented alongside their recorded GI50.

| compound | targetOfAssay | GI50 |
| --- | --- | --- |
| O=C(O)/C(=C/c1c(O)ccc2ccccc12)c1csc(-c2nc(/C(=C\c3c(O)ccc4ccccc34)C(=O)O)cs2)n1 | HCT-116 | 10.6 µM (inactive) |
| O=C1NC(O)c2ccccc2O1 (stereo not drawn) | HCT-116 | > 100 µM (inactive) |
| Cc1ccc(O)cc1.Cc1cccc(O)c1.Cc1ccccc1O | HCT-116 | > 100 µM (inactive) |
| Cc1cc2ncn(-c3nc4ccccc4nc3C(C#N)S(C)(=O)=O)c2cc1C (stereo not drawn) | HCT-116 | > 100 µM (inactive) |
| c1ccc(Sc2nc(Sc3ccccc3)nc(Sc3ccccc3)n2)cc1 | HCT-116 | 60.1 µM (inactive) |
| Cc1ccc(C(=O)Cc2nc3ncccc3[nH]c2=O)cc1 | HCT-116 | 30.5 µM (inactive) |
| COc1ccc2c(c1)/c(=C/C#N)c1c3ccccc3[n+](C)n21 | HCT-116 | 3.13 µM (inactive) |
| CC(=O)c1[nH]c(NCc2ccccc2)c(C(=S)Nc2ccccc2)c1N | HCT-116 | 18.4 µM (inactive) |
